Target: rat PTP1 (Rattus norvegicus)
Construct: a C-terminal truncation of rat PTP1 (amino acid residues 1-322); GST (N, cleaved yes); made in house; host or cells: E. coli strain TG-1 (pGEX-2T)
Sequence (P20417 1-322): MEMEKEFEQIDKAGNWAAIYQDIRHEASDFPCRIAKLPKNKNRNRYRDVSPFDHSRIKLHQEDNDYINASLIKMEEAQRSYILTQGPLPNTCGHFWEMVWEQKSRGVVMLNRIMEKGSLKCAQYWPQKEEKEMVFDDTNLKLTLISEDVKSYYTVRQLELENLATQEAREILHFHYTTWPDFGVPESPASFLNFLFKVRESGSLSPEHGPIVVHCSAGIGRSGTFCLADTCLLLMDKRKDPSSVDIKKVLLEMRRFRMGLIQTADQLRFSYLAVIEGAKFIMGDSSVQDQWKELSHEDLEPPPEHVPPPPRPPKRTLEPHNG
Experiment: PTP1 assay, pNPP hydrolysis (rate of change in A405)
Type: biochemical
Conditions: Conc 1 uM; pNPP hydrolysis; Table 1; read-out: PTP1 Inhib % Inhib
Method: […] PTP1 activity is measured using either p-nitrophenol phosphate (pNPP) or a triphosphopeptide (that matches residues 1142 through 1153 of the β-subunit and the insulin receptor) as substrate in a 96-well microtiter plate format. An assay pH of 7.2 is used for standard assays (measured 405=9800 at pH 7.2). […]
Response key: Criterion met means inhibition at 1 µM >= 2%; Criterion not met means inhibition at 1 µM < 2%.

Problem: Item O=C(O)CCC(=O)N[C@@H](Cc1ccc(OC(C(=O)O)C(=O)O)cc1)C(=O)NCC1CCCCC1 with inhibition at 1 µM of 2% or above?
Result: Criterion not met

Problem: Would you say CCCCCNC(=O)[C@H](Cc1ccc(OC(C(=O)O)C(=O)O)cc1)NC(=O)C1C2CCC(CC2)C1C(=O)O (some centres unmarked) shows inhibition at 1 µM at minimum 2%?
Result: Criterion met

Problem: Determine whether measured inhibition at 1 µM meets or exceeds 2% for CCCCCNC(=O)C(Cc1ccc(OC(COO)COO)cc1)NC(=O)CCC(=O)OCc1ccccc1 (centres unmarked)
Result: Criterion met

Problem: Given NS(=O)(=O)c1ccc(CCNC(=O)C(Cc2ccc(OC(COO)COO)cc2)NC(=O)CCC(=O)O)cc1 (centres unmarked) , state whether its inhibition at 1 µM is at least 2%.
Result: Criterion met

Problem: Does the compound CCCCCNC(=O)[C@H](Cc1ccc(OC(C(=O)O)C(=O)O)cc1)NC(=O)[C@@H]1CCCC[C@H]1C(=O)O have recorded inhibition at 1 µM that is 2% or more?
Result: Criterion not met

Problem: Tell me whether inhibition at 1 µM is at least 2% here: CCCCCNC(=O)[C@H](Cc1ccc(OC(C(=O)O)C(=O)O)cc1)NC(=O)[C@H](CC(=O)O)NC(=O)CCCCC
Result: Criterion met

Problem: Identify whether the reported inhibition at 1 µM of the following compound is 2% or greater: O=C(O)CCC(=O)NC(Cc1ccc(OC(COO)COO)cc1)C(=O)NCc1cccc2ccccc12 (centres unmarked)
Result: Criterion met

====

Biological target: human PTP1B (Homo sapiens, UniProt P18031)
Construct: human PTP1B (amino acid residues 1-321); made in house; host or cells: E. coli BL21(DE3)
Sequence (P18031 1-321): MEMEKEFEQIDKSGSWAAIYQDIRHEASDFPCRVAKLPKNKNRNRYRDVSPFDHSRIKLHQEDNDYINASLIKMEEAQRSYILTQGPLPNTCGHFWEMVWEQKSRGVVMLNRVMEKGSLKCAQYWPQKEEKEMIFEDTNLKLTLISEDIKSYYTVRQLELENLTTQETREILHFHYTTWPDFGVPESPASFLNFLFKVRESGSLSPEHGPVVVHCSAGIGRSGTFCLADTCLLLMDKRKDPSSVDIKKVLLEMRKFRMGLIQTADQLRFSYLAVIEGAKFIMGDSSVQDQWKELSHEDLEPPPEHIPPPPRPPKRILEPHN
Experiment: PTP1B assay, pNPP hydrolysis, assayed exactly as for PTP1
Assay type: biochemical
Conditions: Conc 100 uM, Table 2, read-out: PTP1B Inhib PTP1B. % Inhib
Assign inhibition at 100 µM to each entry below.
Kindly provide the numeric value in % only, without the unit symbol.

Problem: Answer with the recorded inhibition at 100 µM for the molecule listed here: CCCCCNC(=O)[C@H](Cc1ccc(OCC(=O)OC)c(C(=O)O)c1)NC(=O)[C@H](Cc1ccccc1)NC(=O)OC(C)(C)C
Result: 25

Problem: Indicate the recorded inhibition at 100 µM value for this molecule: CCCCCNC(=O)C(Cc1ccc(OCCOO)c(COO)c1)NC(=O)C(Cc1ccccc1)NC(=O)Cc1cccc(O)c1 (stereo not shown)
Result: 98

Problem: // Input: CCCCCNC(=O)C(Cc1ccc(OC(COO)COO)cc1)NC(=O)C(Cc1ccccc1)NS(=O)OC (stereo not shown) . Output its inhibition at 100 µM only.
Result: 86

Problem: Give the reported inhibition at 100 µM for this molecule. CCCCCNC(=O)[C@H](Cc1ccc(OCC(=O)O)c(C(=O)O)c1)NC(=O)C(Cc1ccccc1)NC(=O)CSc1nnc[nH]1 (stereo partly shown)
Result: 96
